Source: patent US9957271B2

Known Emax of a selection of compounds
Target: SIRT1 (Homo sapiens, UniProt Q96EB6)
Sequence (Q96EB6 1-747): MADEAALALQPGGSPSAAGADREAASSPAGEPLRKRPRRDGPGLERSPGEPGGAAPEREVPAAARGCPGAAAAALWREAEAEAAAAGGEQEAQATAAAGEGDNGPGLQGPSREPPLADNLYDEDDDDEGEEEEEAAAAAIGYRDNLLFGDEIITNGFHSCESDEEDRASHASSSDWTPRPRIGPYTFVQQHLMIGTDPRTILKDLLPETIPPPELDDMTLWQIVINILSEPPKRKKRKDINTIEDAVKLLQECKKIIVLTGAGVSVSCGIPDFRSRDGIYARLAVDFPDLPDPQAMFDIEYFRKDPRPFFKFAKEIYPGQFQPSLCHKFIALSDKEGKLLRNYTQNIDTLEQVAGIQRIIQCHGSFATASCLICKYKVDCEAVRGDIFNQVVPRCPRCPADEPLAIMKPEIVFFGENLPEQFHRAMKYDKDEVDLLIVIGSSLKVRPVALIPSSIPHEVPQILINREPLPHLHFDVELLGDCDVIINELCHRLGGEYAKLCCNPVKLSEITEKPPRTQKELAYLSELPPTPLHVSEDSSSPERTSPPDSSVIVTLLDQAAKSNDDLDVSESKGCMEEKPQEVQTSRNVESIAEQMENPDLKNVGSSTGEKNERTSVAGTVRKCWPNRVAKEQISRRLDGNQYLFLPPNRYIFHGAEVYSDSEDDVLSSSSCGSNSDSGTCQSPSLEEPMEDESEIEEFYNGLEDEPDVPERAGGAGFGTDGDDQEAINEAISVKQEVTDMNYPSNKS
Test: TAMRA based mass spectrometry assay of SIRT1 activity
Assay type: biochemical
Conditions: percent maximum fold activation of SIRT1; TAMRA peptide substrate; read-out: TAMRA % Fold Act

[
  {
    "compound": "N#Cc1ccccc1-c1ccc2ncc(C(=O)Nc3cccc(N4CCOCC4)n3)n2n1",
    "Emax": "< 350%"
  },
  {
    "compound": "O=C(Nc1cccc(N2CCOCC2)n1)c1cnc2ccc(-c3cccc(Cl)c3F)nn12",
    "Emax": "≥ 350%"
  },
  {
    "compound": "Cn1nccc1C(=O)Nc1cnc2ccc(-c3ccccc3C(F)(F)F)nn12",
    "Emax": "< 350%"
  },
  {
    "compound": "Cc1cc(C)c(NC(=O)c2cnc3ccc(-c4ccccc4C(F)(F)F)nn23)cn1",
    "Emax": "< 350%"
  },
  {
    "compound": "O=C(Nc1nccs1)c1cnc2ccc(-c3ccccc3C(F)F)nn12",
    "Emax": "< 350%"
  }
]

Problem: Any idea what its Emax is? The compound is `O=C(Nc1ccnc(N2CCC2)c1)c1cnc2ccc(-c3ccc(F)c(F)c3F)nn12`
Solution: < 350%

Problem: Name the reported Emax value associated with the compound O=C(Nc1ccnc(OCC(O)CO)n1)c1cnc2ccc(-c3ccccc3C(F)(F)F)nn12 (centres unmarked)
Solution: ≥ 350%

Problem: So what's the measured Emax for this one? `O=C(Nc1cccc(N2CCC2)n1)c1cnc2ccc(-c3ccccc3C(F)F)nn12`
Solution: ≥ 350%

Problem: Requested field: Emax. Item: `O=C(Nc1cnc2ccc(-c3ccccc3C(F)(F)F)nn12)c1cccc(N2CCOCC2)n1`
Solution: ≥ 350%

Problem: Name the recorded Emax for `O=C(Nc1cnccn1)c1cnc2ccc(-c3cccc(F)c3Cl)nn12` .
Solution: < 350%
